FYI, the data here is from patent US20250339569A1.

This listing pairs binders with measured t1/2 (half-life of the complex, SPR).
studySystem: Fc-fusion protein of human carbonic anhydrase IX (human, UniProt Q16790 38-414)
testDescription: SPR, captured hCAIX-Fc; t1/2 category B: 5.1-15.0 min
Description: Stock solutions of test compounds were prepared by dissolving each compound in DMSO. DMSO stock solution were diluted 1:1000 in Running Buffer without DMSO. […] SPR binding analyses were performed in Single Cycle Kinetic (SCK) mode at 25° C. For each test compound, SPR raw data in the form of resonance units (RU) were plotted as sensorgrams using the Biacore™ T200 control software. […] The pKD value (negative decadic logarithm of dissociation constant) was calculated in the IDBS excel template.
Starred links: 1 amine or outer side, 2 acyl side, 3 side chain; linkers in the order of their positions; H or OH if unused. Positions of bridges follow the written chain, without caps; N, C: chain ends. Non-standard residues stand in square brackets, D forms with d. Primed or numbered codes have the meaning given here. *: point of attachment. Af3(2Py6SaNH) = 3-amino-L-phenylalanine, ring amine acylated by 6-(sulfamoylamino)pyridine-2-carboxylic acid, NS(=O)(=O)Nc1cccc(C(=O)Nc2cccc(C[C@H](N[*:1])C(=O)[*:2])c2)n1; Af3(Iva) = 3-aminophenylalanine with isovaleryl on the ring amine, CC(C)CC(=O)Nc1cccc(C[C@H](N[*:1])C(=O)[*:2])c1; APAc″ = 2-(4-(amino)piperidin-1-yl)acetic acid, NC1CCN(CC(=O)*)CC1; DOTA = O=C(O)CN1CCN(CC(=O)O)CCN(CC(=O)*)CCN(CC(=O)O)CC1; Trp(5-Cl) = N[C@@H](Cc1c[nH]c2ccc(Cl)cc12)C(=O)O; PPAc = 4-carboxymethyl piperazine linker; Ttds(3) = NCCCOCCOCCOCCCNC(=O)CCC(=O)*; mXylylene = c1cc(C[*:1])cc(C[*:2])c1; hSer = N[C@@H](CCO)C(=O)O; AGLU′ = not defined here; Nle = CCCC[C@H](N)C(=O)O; APAc = not defined here; Sar = CNCC(=O)O
measurementLabel: t1/2 (half-life of the complex, SPR)

binder="Ac-VYCE[Sar]D[Trp(5-Cl)]LTWQC-NH2 (linker 3-12 via mXylylene; SMILES CC(=O)N[C@H](C(=O)N[C@@H](Cc1ccc(O)cc1)C(=O)N[C@H]1CSCc2cccc(c2)CSC[C@@H](C(N)=O)NC(=O)[C@H](CCC(N)=O)NC(=O)[C@H](Cc2c[nH]c3ccccc23)NC(=O)[C@H]([C@@H](C)O)NC(=O)[C@H](CC(C)C)NC(=O)[C@H](Cc2c[nH]c3ccc(Cl)cc23)NC(=O)[C@H](CC(=O)O)NC(=O)CN(C)C(=O)[C@H](CCC(=O)O)NC1=O)C(C)C) [3BP-3289]" measurementlabel="t1/2 (half-life of the complex, SPR)" testresult="5.1 to 15 min"
binder="{DOTA-PPAc}-QCE[dP]D[Af3(2Py6SaNH)]LTWSC-NH2 (linker 2-11 via mXylylene) [3BP-4514]" measurementlabel="t1/2 (half-life of the complex, SPR)" testresult="5.1 to 15 min"
binder="{DOTA-APAc″}-VYCE[dP]D[Af3(Iva)]LTWSC-NH2 (linker 3-12 via mXylylene) [3BP-4236]" measurementlabel="t1/2 (half-life of the complex, SPR)" testresult="5.1 to 15 min"
binder="{DOTA-APAc}-VYC[hSer][dP]DWLTWSC-NH2 (linker 3-12 via mXylylene; reading uncertain) [3BP-4101]" measurementlabel="t1/2 (half-life of the complex, SPR)" testresult="5.1 to 15 min"
binder="{DOTA}-YCE[dP]DWLTWSC-NH2 (linker 2-11 via mXylylene; SMILES CC(C)C[C@@H]1NC(=O)[C@H](Cc2c[nH]c3ccccc23)NC(=O)[C@H](CC(=O)O)NC(=O)[C@H]2CCCN2C(=O)[C@H](CCC(=O)O)NC(=O)[C@@H](NC(=O)[C@H](Cc2ccc(O)cc2)NC(=O)CN2CCN(CC(=O)O)CCN(CC(=O)O)CCN(CC(=O)O)CC2)CSCc2cccc(c2)CSC[C@@H](C(N)=O)NC(=O)[C@H](CO)NC(=O)[C@H](Cc2c[nH]c3ccccc23)NC(=O)[C@H]([C@@H](C)O)NC1=O) [3BP-3859]" measurementlabel="t1/2 (half-life of the complex, SPR)" testresult="5.1 to 15 min"
binder="{DOTA-APAc}-VE(AGLU′)CE[dP]DWLTWSC-NH2 (linker 3-12 via mXylylene; reading uncertain) [3BP-4112]" measurementlabel="t1/2 (half-life of the complex, SPR)" testresult="5.1 to 15 min"
binder="{DOTA-Ttds(3)}-[Nle]YCE[dP]DWLTWSC-NH2 (linker 3-12 via mXylylene) [3BP-3870]" measurementlabel="t1/2 (half-life of the complex, SPR)" testresult="5.1 to 15 min"
